test: Human HepG2 cell viability assay in 384 well format; type: toxicity, cell-based; parameters: dose 125 nL, time 70.5 hour; concentration not given beside the values; conditions: HepG2 cells, read-out: Inhibition
The entries below are paired with their reported cytotoxicity at 70.5 h.
attribute-measured: cytotoxicity at 70.5 h (%)

>>> recorded_measurement("CCCNC(=O)CNc1ccc(C(=O)N2CCCCC2C)cc1C (centres undefined)")
-2.88
>>> recorded_measurement("O=S(=O)(c1cccnc1)N1CCN(Cc2nc(-c3cccs3)cs2)CC1")
-14.7
>>> recorded_measurement("CCn1cc(S(=O)(=O)N2CCCCCC2c2cc(C)on2)cn1 (centres undefined)")
2.09
>>> recorded_measurement("COc1c(Br)c(CC2CC(CO)=NO2)c(OC)c2c1OCO2 (centres undefined)")
-9.88

====

The entries below are paired with their reported cytotoxicity at 70.5 h.
experiment: Human HepG2 cell viability assay in 384 well format; assay type: toxicity, cell-based; design: dose 125 nL, time 70.5 hour; concentration not given beside the values; conditions: HepG2 cells, read-out: Inhibition
attribute-measured: cytotoxicity at 70.5 h (%)

>>> recorded_measurement("CCNc1cc2c(nn1)CCN(C(=O)c1cccc3c1OCO3)C2")
3.22
>>> recorded_measurement("NC(=O)C1=NN2C(=NS(=O)(=O)c3ccccc32)N1")
-106
>>> recorded_measurement("Cc1ccccc1CCCN(Cc1ccccn1)S(C)(=O)=O")
-0.248
>>> recorded_measurement("Cc1csc([C@H]2C[C@@H]3CCN(C(=O)c4cnccn4)C[C@H]3O2)n1")
-3.11
>>> recorded_measurement("CCN1CCOC(CNCc2ccccc2OCc2ccncc2)C1 (configuration not stated)")
14.2
>>> recorded_measurement("Cc1cc(C)c2nc(CN3CCOCC(O)C3)cc(O)c2c1 (configuration not stated)")
-0.735
>>> recorded_measurement("OC(CN1CCCCc2ccccc21)Cn1cccn1 (configuration not stated)")
1.14

====

The entries below are paired with their reported cytotoxicity at 70.5 h.
experiment: Human HepG2 cell viability assay in 384 well format; assay type: toxicity, cell-based; parameters: dose 125 nL, time 70.5 hour; concentration not given beside the values; conditions: HepG2 cells, read-out: Inhibition
attribute-measured: cytotoxicity at 70.5 h (%)

>>> recorded_measurement("Cc1cnc(C(=O)N2Cc3ncn(C)c3C(COCC(C)C)C2)cn1 (stereo not drawn)")
-4.87
>>> recorded_measurement("CC(C)(C)C(=O)N[C@H]1C[C@@H](Cc2cc(CN3CCOCC3)on2)C1(C)C")
-6.62
>>> recorded_measurement("Cc1cccc(C(=O)N2CCCC(Cc3cncc4ccccc34)C2)n1 (stereo not drawn)")
-0.949
>>> recorded_measurement("CCc1ccc(C2CCCCCN2Cc2nc(CCOC)no2)o1 (stereo not drawn)")
-6.85
>>> recorded_measurement("Cc1ccccc1C1(C(=O)N2CCCC(n3cncn3)C2)CC1 (stereo not drawn)")
-10.8
>>> recorded_measurement("CNC(=O)CN(C)C(=O)c1cc(Cl)c(I)cc1OC")
-18.4
>>> recorded_measurement("COC(=O)CCCNC(=O)N1CCc2c([nH]c3ccc(Cl)cc23)C1")
-6.07
>>> recorded_measurement("CC(C)C(C(=O)N1CCCN(c2nccs2)CC1)n1cncn1 (stereo not drawn)")
1.24
>>> recorded_measurement("CC(C)c1nc2n(n1)CC(NCc1nnc(-c3ccco3)o1)CC2 (stereo not drawn)")
-11.9
>>> recorded_measurement("CCOc1ccccc1C(=O)Nn1c(C)cc(C)cc1=O")
-6.5
>>> recorded_measurement("CCc1nnc2n1CCN(C(C(N)=O)c1ccc(F)cc1)C2 (stereo not drawn)")
26.6
>>> recorded_measurement("NCc1cnn(-c2ccccc2C(=O)NCCc2ccncc2)c1")
-7.18
>>> recorded_measurement("COc1cc2cc3c(nc2cc1OC)OCCN(CC1CC1)C3")
-2.88
>>> recorded_measurement("CN1CC(=O)N(c2ccccc2)CC12CCN(S(C)(=O)=O)C2 (stereo not drawn)")
20.4
>>> recorded_measurement("CC(C)CCN1CC2(CCCN(C(=O)NCc3cccs3)C2)CCC1=O (stereo not drawn)")
-2.43
>>> recorded_measurement("Cc1cn2c(n1)CCC(NC(=O)CNS(C)(=O)=O)C2 (stereo not drawn)")
-4.61
>>> recorded_measurement("Cc1cc(C)n(CC2CCCN2C(=O)CCCNc2ncccn2)n1 (stereo not drawn)")
-0.613
>>> recorded_measurement("O=C(CC1CC1)N1Cc2nccn2CC(Cn2ncccc2=O)C1 (stereo not drawn)")
-6.18

The reported numbers originate from ChEMBL document CHEMBL3507680.
